The origin of these recorded values is patent US9079913B2.

- Measurement notes: In vitro microsomal stability, human
- Format: in vitro ADME
- Reported conditions: human liver microsomes, NADPH, 10 min
Property label: % of compound remaining when incubated in human liver microsomes with NADPH (%)
Answers are plain numbers, in %.

Worked cases, answers included:
- CC(C)(C)C[C@H]1N[C@@H](C(=O)NCCC(C)(O)CO)[C@H](c2cccc(Cl)c2)[C@@]12C(=O)Nc1cc(Cl)c(F)cc12 (stereo partly shown) [MI-758]: 89.21
- CC(C)(C)C[C@H]1N[C@@H](C(=O)N[C@H]2CC[C@@H](O)C2)[C@H](c2cccc(Cl)c2)[C@@]12C(=O)Nc1cc(Cl)c(F)cc12 [MI-519-27]: 25.03
- CC(C)(C)C[C@H]1N[C@@H](C(=O)NCC[C@H](O)CN2CC[C@@H](O)C2)[C@H](c2cccc(Cl)c2)[C@@]12C(=O)Nc1cc(Cl)c(F)cc12 [MI-519-29]: 56.31

Lab note: next molecule to report on.
Consider the molecule CC(C)(C)C[C@H]1N[C@@H](C(=O)NCC[C@H](O)CN2CCCC2)[C@H](c2cccc(Cl)c2)[C@@]12C(=O)Nc1cc(Cl)c(F)cc12 [MI-519-28] . State its measured % of compound remaining when incubated in human liver microsomes with NADPH.
89.02

###

- Test system: cancer cell lines with wild-type p53 / mutated or deleted p53 (ATCC)
- Measurement notes: Cell growth assay (WST-8), other cancer cell lines
- Format: cell-based
- Reported conditions: read-out: PC-3 (deleted p53) IC50
Property label: IC50

Consider the molecule CC(C)(C)C[C@H]1N[C@@H](C(=O)NC2CCC(O)CC2)[C@H](c2cccc(Cl)c2F)[C@@]12C(=O)Nc1cc(F)c(F)cc12 (stereo partly shown) . State its measured IC50.
> 10 µM

###

- Measurement notes: In vitro microsomal stability, human
- Assay type: in vitro ADME
- Reported conditions: human liver microsomes, NADPH, 10 min
Provide the reported % of compound remaining when incubated in human liver microsomes with NADPH of each item.
Answers are plain numbers, in %.

Worked cases, answers included:
- CC(C)(C)C[C@H]1N[C@@H](C(=O)N[C@H]2CC[C@@H](O)C2)[C@H](c2cccc(Cl)c2F)[C@@]12C(=O)Nc1cc(Cl)ccc12: 9.88
- CC(C)(C)C[C@H]1N[C@@H](C(=O)NC2CCC(O)CC2)[C@H](c2cccc(Cl)c2F)[C@@]12C(=O)Nc1cc(Cl)ccc12 (stereo partly drawn): 82.97
- CC(C)(C)C[C@H]1N[C@@H](C(=O)NC2CCC(NS(C)(=O)=O)CC2)[C@H](c2cccc(Cl)c2F)[C@@]12C(=O)Nc1cc(Cl)ccc12 (stereo partly drawn) [MI-772]: 86.87
- CC(C)(C)C[C@H]1N[C@@H](C(=O)NCC[C@H](O)CNC(C)(C)C)[C@H](c2cccc(Cl)c2)[C@@]12C(=O)Nc1cc(Cl)c(F)cc12: 53.92

Provide % of compound remaining when incubated in human liver microsomes with NADPH values for the following items, in order.
1. CC(O)C(O)CCNC(=O)[C@@H]1N[C@H](CC(C)(C)C)[C@]2(C(=O)Nc3cc(Cl)c(F)cc32)[C@H]1c1cccc(Cl)c1 (stereo partly drawn)
2. CC(C)(C)C[C@H]1N[C@@H](C(=O)NC2CCC(NS(C)(=O)=O)CC2)[C@H](c2cccc(Cl)c2F)[C@@]12C(=O)Nc1cc(Cl)ccc12 (stereo partly drawn) [MI-771]

[58.15, 10.82]

###

- Measurement notes: Pharmacokinetic studies in rats
- Format: in vivo, rat
- Reported conditions: rat, plasma; male rats, oral dose 15 mg/kg
Provide the reported half-life of each item.
Numbers only, in h.

Provide half-life values for the following items, in order.
1. CC(C)(C)C[C@H]1N[C@@H](C(=O)NCC[C@H](O)CN2CCCC2)[C@H](c2cccc(Cl)c2)[C@@]12C(=O)Nc1cc(Cl)c(F)cc12
2. CC(C)(C)C[C@H]1N[C@@H](C(=O)NCCC(C)(O)CO)[C@H](c2cccc(Cl)c2)[C@@]12C(=O)Nc1cc(Cl)c(F)cc12 (stereo partly shown)
3. CC(C)(C)C[C@H]1N[C@@H](C(=O)NCC[C@H](O)CNC(C)(C)C)[C@H](c2cccc(Cl)c2)[C@@]12C(=O)Nc1cc(Cl)c(F)cc12
4. CC(C)(C)C[C@H]1N[C@@H](C(=O)NCC[C@H](O)CN2CC[C@@H](O)C2)[C@H](c2cccc(Cl)c2)[C@@]12C(=O)Nc1cc(Cl)c(F)cc12

1. 1.6
2. 1.9
3. 3.2
4. 6.9

###

- Tested on: Isogenic HCT-116 colon cancer cell lines;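 note: cells grown in 96-well plates in McCoy's 5A medium with 10% FBS, exposed to compound for 4 days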
- Measurement notes: cells
- Assay type: cell-based
- Reported conditions: Homo sapiens, HCT-116, read-out: HCT-116 (p53 wild-type) IC50
Property label: IC50 (nM)
Numbers only, in nM.

Worked cases, answers included:
• CC(C)(C)C[C@H]1N[C@@H](C(=O)N[C@H]2CC[C@@H](O)C2)[C@H](c2cccc(Cl)c2F)[C@@]12C(=O)Nc1cc(Cl)ccc12 = 600
• CC(C)(C)C[C@@H]1N[C@@H](C(=O)NC2CCC(O)CC2)[C@H](c2cccc(F)c2F)[C@]12C(=O)Nc1cc(Cl)ccc12 (some centres unmarked) = 300
• CC(C)(C)C[C@H]1N[C@@H](C(=O)N[C@H]2C[C@@H](O)C2)[C@H](c2cccc(Cl)c2F)[C@@]12C(=O)Nc1cc(Cl)ccc12 (stereo in doubt) = 2000

Lab note: next compound to report on.
Consider the compound CC(C)(C)C[C@@H]1N[C@@H](C(=O)N[C@H]2C[C@@](C)(O)C2)[C@H](c2cccc(Cl)c2F)[C@]12C(=O)Nc1cc(Cl)ccc12 . State its measured IC50.
100

###

- Measurement notes: In vitro microsomal stability, rat
- Assay type: in vitro ADME
- Reported conditions: 15 min
Property label: % of compound remaining when incubated in rat liver microsomes with NADPH (%)
Give bare numbers, in %.

Worked cases, answers included:
• CC(O)C(O)CCNC(=O)[C@@H]1N[C@H](CC(C)(C)C)[C@]2(C(=O)Nc3cc(Cl)c(F)cc32)[C@H]1c1cccc(Cl)c1 (stereo partly shown) [MI-519-31] = 57.57
• CC(C)(C)C[C@H]1N[C@@H](C(=O)N[C@H]2C[C@@H](O)C2)[C@H](c2cccc(Cl)c2F)[C@@]12C(=O)Nc1cc(Cl)ccc12 (stereo in doubt) [MI-519-63] = 46.44
• CC(C)(C)C[C@H]1N[C@@H](C(=O)NC2CC(O)C2)[C@H](c2cccc(Cl)c2F)[C@@]12C(=O)Nc1cc(Cl)ccc12 (stereo partly shown) [MI-519-60] = 51.52

Lab note: next compound to report on.
Consider the compound CC(C)(C)C[C@H]1N[C@@H](C(=O)N[C@H]2C[C@@](C)(O)C2)[C@H](c2cccc(Cl)c2F)[C@@]12C(=O)Nc1cc(Cl)ccc12 [MI-519-64] . State its measured % of compound remaining when incubated in rat liver microsomes with NADPH.
48.47

###

- Target or system: recombinant human His-tagged MDM2 protein (residues 1-118) (Homo sapiens (Human), UniProt Q00987)
- Sequence (Q00987 1-118): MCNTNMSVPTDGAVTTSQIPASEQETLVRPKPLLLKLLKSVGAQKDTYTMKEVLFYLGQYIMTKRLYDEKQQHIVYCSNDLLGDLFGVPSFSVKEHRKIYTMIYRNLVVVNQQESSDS
- Measurement notes: Fluorescence-polarization MDM2 binding assay;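 note: fluorescence polarization read after three hours of incubation in potassium phosphate buffer containing bovine gamma globulin and Triton X-100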
- Reported conditions: Table 19D; read-out: MDM2 Binding Affinities IC50
Provide the reported IC50 of each item.

* CC(C)(C)C[C@H]1N[C@@H](CO)[C@H](c2cccc(Cl)c2)[C@@]12C(=O)Nc1cc(Cl)c(F)cc12 | < 5 µM
* CC(C)(C)C[C@H]1N[C@@H](C(=O)NCC[C@H](O)CO)[C@H](c2cccc(Cl)c2)[C@@]12C(=O)Nc1cc(F)ccc12 | < 1 µM
* CC(C)(C)C[C@H]1N[C@@H](C(=O)NCC[C@H](O)CO)[C@H](c2ccc(F)c(F)c2)[C@@]12C(=O)Nc1cc(F)c(F)cc12 | < 10 µM

Provide IC50 values for the following items, in order.
1. CN1CC[C@@H](NC(=O)[C@@H]2N[C@H](CC(C)(C)C)[C@]3(C(=O)Nc4cc(Cl)ccc43)[C@H]2c2cccc(Cl)c2F)[C@@H](F)C1
2. CC(C)(C)C[C@H]1N[C@@H](C(=O)N[C@@H]2CCN(CCF)C[C@@H]2F)[C@H](c2cccc(Cl)c2F)[C@@]12C(=O)Nc1cc(Cl)ccc12
3. CC(C)(C)C[C@H]1N[C@@H](C(=O)NCCC2CCC(O)C2)[C@H](c2cccc(Cl)c2)[C@@]12C(=O)Nc1cc(F)c(F)cc12 (stereo partly drawn) [MI-519-26]

1. < 1 µM
2. < 1 µM
3. < 10 µM

###

- Target or system: recombinant human His-tagged MDM2 protein (residues 1-118) (Homo sapiens (Human))
- Measurement notes: Fluorescence-polarization MDM2 binding assay
- Reported conditions: Table 19A; FP binding assay; read-out: MDM2 IC50
pIC50: −log10 of the molar value.
Property label: pIC50

Worked cases, answers included:
- CC(=O)N1CCN(C(=O)[C@@H]2N[C@H](CC(C)(C)C)[C@]3(C(=O)Nc4cc(Cl)c(F)cc43)[C@H]2c2cccc(Cl)c2)CC1 [MI-742]: > 5.00
- CC(C)(C)C[C@H]1N[C@@H](C(=O)N[C@H]2C[C@@](C)(O)C2)[C@H](c2cccc(Cl)c2)[C@@]12C(=O)Nc1cc(F)c(F)cc12 [C035]: > 5.52
- CCN(CC)C(=O)N1CC(NC(=O)[C@@H]2N[C@H](CC(C)(C)C)[C@]3(C(=O)Nc4cc(Cl)ccc43)[C@H]2c2cccc(Cl)c2F)C1 [MI-917]: > 6.00
- CC(C)(C)C[C@H]1N[C@@H](C(=O)NC2CCC(OC(=O)C(C)(C)N)CC2)[C@H](c2cccc(Cl)c2F)[C@@]12C(=O)Nc1cc(Cl)ccc12 (stereo partly drawn) [MI-907]: > 6.00
- CC(C)(C)C[C@H]1N[C@@H](C(=O)N2CCNCC2)[C@H](c2cccc(Cl)c2)[C@@]12C(=O)Nc1cc(Cl)c(F)cc12 [MI-739]: > 5.30

Provide pIC50 values for the following items, in order.
1. CC[C@H](C)[C@H](N)C(=O)OC1CCC(NC(=O)[C@@H]2N[C@H](CC(C)(C)C)[C@]3(C(=O)Nc4cc(Cl)ccc43)[C@H]2c2cccc(Cl)c2F)CC1 (stereo partly drawn) [MI-904]
2. CC(C)(C)C[C@H]1N[C@@H](C(=O)NC2CN(CC(C)(C)O)C2)[C@H](c2cccc(Cl)c2F)[C@@]12C(=O)Nc1cc(Cl)ccc12 [MI-909]
3. CC(C)(C)C[C@H]1N[C@@H](C(=O)NC2CCC(OC(=O)CN)CC2)[C@H](c2cccc(Cl)c2F)[C@@]12C(=O)Nc1cc(Cl)ccc12 (stereo partly drawn) [MI-901]
4. CC(O)C(O)CCNC(=O)[C@@H]1N[C@H](CC(C)(C)C)[C@]2(C(=O)Nc3cc(Cl)c(F)cc32)[C@H]1c1cccc(Cl)c1 (stereo partly drawn) [MI-519-30]
5. CC(C)(C)C[C@H]1N[C@@H](C(=O)NC2CCN(S(=O)(=O)C(F)(F)F)CC2)[C@H](c2cccc(Cl)c2F)[C@@]12C(=O)Nc1cc(Cl)ccc12 [MI-780]
6. CC(C)(C)C[C@H]1N[C@@H](C(=O)NC2CN(CCO)C2)[C@H](c2cccc(Cl)c2F)[C@@]12C(=O)Nc1cc(Cl)ccc12 [MI-912]
7. CC(C)(C)C[C@H]1N[C@@H](C(=O)NCCCN2CCCC2)[C@H](c2cccc(Cl)c2)[C@@]12C(=O)Nc1cc(Cl)c(F)cc12 [MI-519-38]

["> 6.00", "> 6.00", "> 6.00", "> 5.70", "> 5.52", "> 5.52", "> 6.00"]
